Test system: CCRF-CEM (Leukemia)
EXPERIMENT_DESCRIPTION: NCI-60 screen (SRB, 48 h)
EXPERIMENTAL_SETUP: Homo sapiens, 48 h, read-out: TGI
Consider the following molecules; for each one, report its IC (TGI).
One number for each entry, in µM.

# example entries with known answers
| MOLECULE | UNITS | IC (TGI) |
| --- | --- | --- |
| CC1(C)CC[C@]23CC[C@]4(C)[C@H](CC[C@@H]5[C@@]6(C)CCCNC(C)(C)[C@@H]6CC[C@]54C)[C@H]2[C@H]1OC3 [Compound 7, Azepanoallobetulin] | µM | 6.73 |
| C=C(C)[C@@H]1CC[C@]2(C(=O)N[C@H](CO)Cc3ccccc3)CC[C@]3(C)[C@H](CC[C@@H]4[C@@]5(C)CCCNC(C)(C)[C@@H]5CC[C@]43C)[C@@H]12 [Compound 11] | µM | 0.74 |
| C=C(C)[C@@H]1CCC=C2CC[C@]3(C)[C@H](CC[C@@H]4[C@@]5(C)CCCNC(C)(C)[C@@H]5CC[C@]43C)[C@H]21 [Compound 8] | µM | 5.63 |

Consider the additional molecule presented here.
Could you share which IC (TGI) value was measured for C=C(C)[C@@H]1CC[C@]2(C)[C@H](CC=C3[C@@H]4[C@@H](C)[C@H](C)CC[C@]4(CO)CC[C@]32C)[C@@]1(C)CCCN [Compound 19] ? 5.26
